Assay notes: Cytotoxicity against African green monkey Vero cells incubated for 72 hrs by MTS assay
Format: cell-based
Stated conditions: chlorocebus sabaeus
Endpoint: CC50 at 72 h

Could you share which CC50 at 72 h value was measured for `Cc1cc(O)c(=O)c(O)cc1-c1ccc(-c2ccccc2)cc1` ? > 100 µM

Could you share which CC50 at 72 h value was measured for `Cc1cc(O)c(=O)c(O)cc1C(=O)c1ccc(-c2ccccc2)cc1` ? > 100 µM

====

Assay notes: Therapeutic index, ratio of CC50 for African green monkey Vero cells to EC50 for HSV-1 infected in African green monkey Vero cells
Type: toxicity
Stated conditions: read-out: Ratio CC50/EC50
Mark Not satisfied for selectivity ratio values under 200, and Satisfied for everything at or above.

Dear colleague, could you confirm whether `Cc1cc(O)c(=O)c(O)cc1C(=O)C1CCCCC1` has selectivity ratio at or above 200? Not satisfied

Dear colleague, could you confirm whether `Cc1cc(O)c(=O)c(O)cc1C(=O)C(C)C` has selectivity ratio at or above 200? Not satisfied

Dear colleague, could you confirm whether `Cc1cc(O)c(=O)c(O)cc1C(=O)c1ccc(-c2ccccc2)cc1` has selectivity ratio at or above 200? Satisfied

Dear colleague, could you confirm whether `CCCCCCCC(=O)c1cc(O)c(=O)c(O)cc1C` has selectivity ratio at or above 200? Not satisfied

Dear colleague, could you confirm whether `CCCCCCCCCCCC(=O)c1cc(O)c(=O)c(O)cc1C` has selectivity ratio at or above 200? Satisfied

Dear colleague, could you confirm whether `Cc1cc(O)c(=O)c(O)cc1C(=O)c1ccc2ccc3cccc4ccc1c2c34` has selectivity ratio at or above 200? Satisfied

Dear colleague, could you confirm whether `CCCCCCCCCCCCCC(=O)c1cc(O)c(=O)c(O)cc1C` has selectivity ratio at or above 200? Satisfied

====

System: Human alphaherpesvirus 1
Assay notes: Antiviral activity against HSV-1 infected in African green monkey Vero cells assessed as suppression of viral replication at 0.2 uM after 24 hrs by plaque reduction assay based phase contrast microscopy
Assay type: functional
Endpoint: log(activity)

Could you share which log(activity) value was measured for `Cc1cc(O)c(=O)c(O)cc1C(=O)c1ccc(-c2ccccc2)cc1` ? 0.43

Could you share which log(activity) value was measured for `CCCCCCCC(=O)c1cc(O)c(=O)c(O)cc1C` ? 0.13

Could you share which log(activity) value was measured for `Cc1cc(O)c(=O)c(O)cc1C(=O)c1ccc2ccc3cccc4ccc1c2c34` ? 0.93

Could you share which log(activity) value was measured for `Cc1cc(O)c(=O)c(O)cc1C(=O)c1ccc(-c2ccc3ccccc3c2)cc1` ? 1.34

====

Test system: Human alphaherpesvirus 1
Assay notes: Antiviral activity against HSV-1 infected in African green monkey Vero cells assessed as suppression of viral replication after 24 hrs by plaque reduction assay based phase contrast microscopy
Type: functional, organism-based
Stated conditions: Human alphaherpesvirus 1, Vero
Would you kindly list log10 EC50 for each of these compounds?
Kindly note that the scale is log10 and the underlying EC50 is in nM.

Could you share which log10 EC50 value was measured for `Cc1cc(O)c(=O)c(O)cc1C(=O)c1ccc2ccc3cccc4ccc1c2c34` ? 1.78

Could you share which log10 EC50 value was measured for `CCCCCCCCCC(=O)c1cc(O)c(=O)c(O)cc1C` ? 3.04

Could you share which log10 EC50 value was measured for `CCCCCCCC(=O)c1cc(O)c(=O)c(O)cc1C` ? 2.64

Could you share which log10 EC50 value was measured for `Cc1cc(O)c(=O)c(O)cc1C(=O)c1ccc(-c2ccccc2)cc1` ? 2.23

Could you share which log10 EC50 value was measured for `Cc1cc(O)c(=O)c(O)cc1C(=O)C1CCCCC1` ? 2.80

Could you share which log10 EC50 value was measured for `Cc1cc(O)c(=O)c(O)cc1C(=O)C(C)C` ? 4.41

Could you share which log10 EC50 value was measured for `CC(=O)c1cc(O)c(=O)c(O)cc1C` ? 3.08

Could you share which log10 EC50 value was measured for `CCCCCCCCCCCC(=O)c1cc(O)c(=O)c(O)cc1C` ? 2.54

Could you share which log10 EC50 value was measured for `CCCCCCCCCCCCCC(=O)c1cc(O)c(=O)c(O)cc1C` ? 2.15

The reported measurements were obtained from ChEMBL document CHEMBL4373664.
